Collected from the literature: pIC50 of various compounds toward UniProt P53779.
pIC50: −log10 of the molar value.
observation type: pIC50

{"molecular string": "Cn1cnc(NC(=O)c2cc(-n3ncc4cc(Nc5ccccc5Cl)ncc43)cs2)c1", "target system": "UniProt P53779", "observation type": "pIC50", "reported result": "> 6.70"}
{"molecular string": "CS(=O)(=O)Nc1cccc(-c2cnc3[nH]cc(C(=O)c4cc(O)ccc4F)c3c2)c1", "target system": "UniProt P53779", "observation type": "pIC50", "reported result": "≥ 5.00"}
{"molecular string": "[2H]C([2H])([2H])N1CC[C@H](NC(=O)c2cc(-n3ncc4cc(Nc5ccccc5Cl)c(F)cc43)cs2)C1", "target system": "UniProt P53779", "observation type": "pIC50", "reported result": "> 6.70"}
{"molecular string": "COc1c(C(=O)NCc2ccco2)ccc2[nH]nc(-c3cccc(F)c3)c12", "target system": "UniProt P53779", "observation type": "pIC50", "reported result": 7.00}

###

Collected from the literature: IC50 of various compounds toward JNK3 (Homo sapiens).

{"molecular string": "N#Cc1csc(NC(=O)Cn2c(=O)ccc3cc(C(F)(F)F)ccc32)c1-n1ccnn1", "IC50": "0.1 to 10 µM"}
{"molecular string": "CCc1cnc2[nH]cc(C(=O)c3cccc(O)c3)c2c1", "IC50": "≤ 10 µM"}
{"molecular string": "O=C(Nc1cccc(C(=O)c2c[nH]c3ncc(-c4cccnc4)cc23)c1)Nc1ccc(F)c(F)c1", "IC50": "≤ 10 µM"}
{"molecular string": "N#CCc1cnc(-c2ccc3ccccc3c2)n1-c1ccnc(NC2CCCCC2)n1", "IC50": "0.03 to 0.1 µM"}

###

Collected from the literature: pIC50 of various compounds toward JNK3 (Homo sapiens, UniProt P53779).
pIC50: −log10 of the molar value.
observation type: pIC50

{"compound": "O=C(NCc1ccccc1)Nc1cccc(C(=O)c2c[nH]c3ncc(-c4cccnc4)cc23)c1", "observation type": "pIC50", "reported result": "≥ 5.00"}
{"compound": "CNC(=O)c1cc(-n2ncc3cc(Nc4cccc(C)c4Cl)ncc32)cs1", "observation type": "pIC50", "reported result": "> 6.70"}
{"compound": "O=C(Cc1ccsc1)Nc1ccc2[nH]nc(-c3cn4ccccc4n3)c2c1", "observation type": "pIC50", "reported result": 7.10}
{"compound": "CC1CC=C(c2cnc3[nH]cc(-c4csc(C(=O)N5CCOCC5)n4)c3c2)CC1 (stereo not shown)", "observation type": "pIC50", "reported result": 6.82}
{"compound": "COc1cccc(NC2CCN(S(=O)(=O)c3ccc(CNC(=O)c4ccc([N+](=O)[O-])cc4)s3)CC2)c1", "observation type": "pIC50", "reported result": 6.77}
{"compound": "CC(C)N1CC[C@@H](NC(=O)c2cc(-n3ncc4cc(Nc5ccccc5Cl)ccc43)cs2)C1", "observation type": "pIC50", "reported result": "> 6.70"}
{"compound": "Cc1nc(-c2c[nH]c3ncc([C@H]4CC[C@H](N5CCCOCC5)CC4)cc23)sc1C", "observation type": "pIC50", "reported result": 5.97}
{"compound": "O=C(NCc1ccc(S(=O)(=O)N2CCC(Nc3ccccc3)CC2)s1)c1ccc(Cl)cc1", "observation type": "pIC50", "reported result": 6.10}
{"compound": "O=C(Cc1ccnc2ccccc12)Nc1scc(Br)c1-c1nnc[nH]1", "observation type": "pIC50", "reported result": "> 7.00"}
{"compound": "COc1ccc(CC(=O)Nc2ccsc2-n2cc(C)cn2)cc1", "observation type": "pIC50", "reported result": "< 5.00"}
{"compound": "c1ccc(COc2cccc(Cc3c[nH]c4ncc(-c5ccsc5)cc34)c2)cc1", "observation type": "pIC50", "reported result": "≥ 5.00"}
{"compound": "CN1CCCN([C@H]2CC[C@@H](c3cnc4[nH]cc(-c5cnn(C)c5)c4c3)CC2)CC1", "observation type": "pIC50", "reported result": 7.01}
{"compound": "Nc1cccc(-c2cnc3[nH]cc(C(=O)c4ccccc4F)c3c2)c1", "observation type": "pIC50", "reported result": "≥ 5.00"}
{"compound": "O=C(Cn1c(=O)ccc2nc(C(F)(F)F)ccc21)Nc1scc(Cl)c1-c1ncn[nH]1", "observation type": "pIC50", "reported result": "> 7.00"}
{"compound": "O=C(Nc1ccc(Cl)cc1)Nc1cccc(C(=O)c2c[nH]c3ncc(-c4cccnc4)cc23)c1", "observation type": "pIC50", "reported result": "≥ 5.00"}
{"compound": "Cn1cnc(-c2c(Cl)csc2NC(=O)Cn2c(=O)ccc3nc(C(F)(F)F)ccc32)n1", "observation type": "pIC50", "reported result": "> 7.00"}
{"compound": "O=C(Nc1cccc(C(=O)c2c[nH]c3ncccc23)c1)Nc1ccc(C(F)(F)F)cc1Cl", "observation type": "pIC50", "reported result": "≥ 5.00"}
{"compound": "Nc1ccc(F)c(C(=O)c2c[nH]c3ncc(-c4ccccc4)cc23)c1", "observation type": "pIC50", "reported result": "≥ 5.00"}
{"compound": "c1ccc(Sc2cnc3[nH]cc(-c4cn[nH]c4)c3c2)cc1", "observation type": "pIC50", "reported result": "> 6.70"}
{"compound": "Cc1ccc(NC(=O)Nc2cccc(C(=O)c3c[nH]c4ncc(-c5cccnc5)cc34)c2)cc1", "observation type": "pIC50", "reported result": "≥ 5.00"}
{"compound": "Cn1cc(-c2c[nH]c3ncc(C4CCC(C(C)(C)C)CC4)cc23)cn1 (mixture of isomers)", "observation type": "pIC50", "reported result": 6.91}
{"compound": "Cn1cc(-c2c[nH]c3ncc(OCC4CCCCC4)cc23)cn1", "observation type": "pIC50", "reported result": "> 6.30"}
{"compound": "N#Cc1csc(NC(=O)Cn2c(=O)ccc3cc(C(F)(F)F)ccc32)c1-c1nccs1", "observation type": "pIC50", "reported result": "> 7.00"}
{"compound": "Cn1cc(-c2c[nH]c3ncc([C@H]4CC[C@@H](N(C)C)CC4)cc23)cn1", "observation type": "pIC50", "reported result": 6.59}
{"compound": "Cn1cc(-c2c[nH]c3ncc([C@H]4CC[C@H](NC5CCOCC5)CC4)cc23)cn1", "observation type": "pIC50", "reported result": 6.40}
{"compound": "COc1ccc(CC(=O)Nc2ccsc2-n2cccn2)cc1", "observation type": "pIC50", "reported result": "< 5.00"}
{"compound": "Cn1cc(-c2c[nH]c3ncc(Cc4ccccc4)cc23)cn1", "observation type": "pIC50", "reported result": "> 6.70"}
{"compound": "NC(=O)Nc1ccc(F)c(C(=O)c2c[nH]c3ncc(-c4ccccc4)cc23)c1", "observation type": "pIC50", "reported result": "≥ 5.00"}
{"compound": "O=C(c1nc(-c2c[nH]c3ncc(C4=CCCC4)cc23)cs1)N1CCOCC1", "observation type": "pIC50", "reported result": 7.42}
{"compound": "CCCS(=O)(=O)Nc1ccc(F)c(C(=O)c2c[nH]c3ncc(-c4cccnc4)cc23)c1F", "observation type": "pIC50", "reported result": "≥ 5.00"}
{"compound": "O=C(Nc1ccc(F)c(C(=O)c2c[nH]c3ncc(-c4cccnc4)cc23)c1F)NC1CCCC1", "observation type": "pIC50", "reported result": "≥ 5.00"}
{"compound": "CN1CCN([C@H]2CC[C@H](c3cnc4[nH]cc(-c5cnn(C)c5)c4c3)CC2)CC1", "observation type": "pIC50", "reported result": 7.05}
{"compound": "CN1CCCC1c1nc(-c2c[nH]c3ncc([C@H]4CC[C@H](N5CCOCC5)CC4)cc23)cs1 (stereo partly shown)", "observation type": "pIC50", "reported result": 5.90}
{"compound": "N#CCc1cnc(-c2ccc(Cl)c(Cl)c2)n1-c1ccnc(NC2CCCN(C(=O)C3CC3)C2)n1 (stereo not shown)", "observation type": "pIC50", "reported result": "7.00 to 7.52"}

###

pIC50: −log10 of the molar value.
Collected from the literature: pIC50 of various compounds toward JNK3 (Homo sapiens, UniProt P53779).

{"molecular string": "CC(=O)N1CC(NC(=O)c2cc(-n3ncc4cc(Nc5ccccc5Cl)ccc43)cs2)C1", "target system": "JNK3 (Homo sapiens, UniProt P53779)", "pIC50": "> 6.70"}
{"molecular string": "O=C(c1cccc(O)c1)c1ccc(-c2cnc3[nH]ccc3c2)s1", "target system": "JNK3 (Homo sapiens, UniProt P53779)", "pIC50": "≥ 5.00"}
{"molecular string": "CCCN(CCC)C(=O)n1ccc2c(C(=O)c3c[nH]c4ncc(-c5cccnc5)cc34)cccc21", "target system": "JNK3 (Homo sapiens, UniProt P53779)", "pIC50": "≥ 5.00"}
{"molecular string": "CNC(=O)c1cc(-n2ncc3cc(Nc4cccc(F)c4Cl)ncc32)cs1", "target system": "JNK3 (Homo sapiens, UniProt P53779)", "pIC50": "> 6.70"}
{"molecular string": "O=C(Nc1cccc(C(=O)c2c[nH]c3ncccc23)c1)Nc1ccon1", "target system": "JNK3 (Homo sapiens, UniProt P53779)", "pIC50": "≥ 5.00"}
{"molecular string": "C[C@H]1COCCN1[C@H]1CC[C@H](c2cnc3[nH]cc(-c4cnn(C)c4)c3c2)CC1", "target system": "JNK3 (Homo sapiens, UniProt P53779)", "pIC50": 6.58}
{"molecular string": "CC(=O)N1CC[C@H](NC(=O)c2cc(-n3ncc4cc(Nc5ccccc5Cl)c(F)cc43)cs2)C1", "target system": "JNK3 (Homo sapiens, UniProt P53779)", "pIC50": "> 6.70"}
{"molecular string": "CCCS(=O)(=O)Nc1ccc(F)c(C(=O)c2c[nH]c3ncc(-c4cnn(C)c4)cc23)c1F", "target system": "JNK3 (Homo sapiens, UniProt P53779)", "pIC50": "≥ 5.00"}
